System: Saccharomyces cerevisiae
Assay: protein stability index of tFT-peptide fusion (C-terminal peptide) (PSI (0-1 scale)); higher = more stable (slower turnover)
Settings: genetic background: wild type; temperature: 30 C
observable: protein stability index
Please respond with just the number, no unit label.

See these solved cases before continuing.
SLENVAMLVYKK [TRM13 C-terminal 12 aa]: 0.66
EKANDIGFHKYR [RPS29B C-terminal 12 aa]: 0.648
IGELLEGIRMSI [BIT2 C-terminal 12 aa]: 0.729

Switching to the query record.
Challenge: Bench note: what protein stability index did NEDDYLAVKYVL [FES1 C-terminal 12 aa] show?
Response given: 0.696

---

System: Saccharomyces cerevisiae
Experiment: protein stability index of tFT-peptide fusion (C-terminal peptide) (PSI (0-1 scale)); higher = more stable (slower turnover)
Settings: genetic background: das1 deletion; temperature: 30 C
observable: protein stability index
No unit in the answer, only the number.

Solved entries:
YNINDLYKSLTR [MAK32 C-terminal 12 aa]: 0.706
VTVYGGRSRMSA [YJL152W C-terminal 12 aa]: 0.699
GYKPIILYHVIH [YDL025W-A C-terminal 12 aa]: 0.691

Challenge: Enter reported protein stability index observed with Saccharomyces cerevisiae for KVHRKKVPGCTI [YGR011W C-terminal 12 aa]
Response given: 0.697

---

Tested on: Saccharomyces cerevisiae
Experiment: protein stability index of tFT-peptide fusion (C-terminal peptide) (PSI (0-1 scale)); higher = more stable (slower turnover)
Settings: genetic background: das1 deletion; temperature: 37 C
observable: protein stability index
// print number alone

Look over these answered cases.
RGAVLLPSLWVV: 0.735
ARWRVGLWRGAS: 0.764
GWWCGIGVAVSV: 0.511
QCSPGLPHAQGL: 0.733
LSLPTPLPSPPA: 0.629
GCCFVCSVFWWG: 0.528
RLVPFMAVRVLF: 0.649
FFGFYLKFVWCG: 0.516
TLSRTPVSPSAP: 0.706
LCGGEWVVWVKG: 0.721

Challenge: // query protein stability index value for entry FRLCQRPVFLLS
Response given: 0.676

Challenge: Param item = SFLRVRSLISCS ; retrieve measured protein stability index.
Response given: 0.404

Challenge: Find the recorded protein stability index belonging to WVRIIIKLRASL and report it.
Response given: 0.41

---

System: Saccharomyces cerevisiae
Experiment: protein stability index of tFT-peptide fusion (C-terminal peptide) (PSI (0-1 scale)); higher = more stable (slower turnover)
Settings: genetic background: wild type; temperature: 30 C
observable: protein stability index

FHSSDLCGPVTS: 0.67
VSFLLYNFLSVF: 0.101
VCCMFTAFGVCG: 0.604

Challenge: Quick one: protein stability index for KFSVVMFLDGSW ?
Response given: 0.697

Challenge: Look up protein stability index: PASCARVFVGMS
Response given: 0.67

Challenge: Name the recorded protein stability index for FPPRPLPFCSPA .
Response given: 0.643

Challenge: Look up protein stability index for this sequence: GGGGVACAGCTV
Response given: 0.637

Challenge: Requested read-out: protein stability index. Entry: SWVFSVDNGLVV
Response given: 0.613

Challenge: Give its protein stability index value. Item: KMTSLSRVDIEE
Response given: 0.668

---

Test system: Saccharomyces cerevisiae
Experiment: protein stability index of tFT-peptide fusion in wild type (PSI (0-1 scale)); higher = more stable (slower turnover)
Conditions: genetic background: wild type
Quick reference for protein stability index among some sequences
// print number alone

Before answering, review these 6 worked examples.
FSMRWTFRVWVN: 0.035
PDKRNHLIKLYN: 0.343
AITLPMCPLLLRR: 0.34
LKILRVKMNHQN: 0.187
KKHKKGQKQRIN: 0.127
VLYMCSVGCWFR: 0.311

Challenge: Quick one: protein stability index for CTKCGYKFRTNN ?
Response given: 0.258

---

Listing: protein stability index of selected sequences
System: Saccharomyces cerevisiae
Assay: protein stability index of tFT-peptide fusion (C-terminal peptide) (PSI (0-1 scale)); higher = more stable (slower turnover)
Details: genetic background: wild type; temperature: 30 C
Give a plain numeric answer without units written out.

RSSTYGIMYSYR: 0.715
TVLRPVLCCFFV: 0.698

Challenge: What value of protein stability index has been recorded for this entry: CCRRWSLEWGRG
Response given: 0.717

---

protein stability index values by entry
System: Saccharomyces cerevisiae
Experiment: protein stability index of tFT-peptide fusion (C-terminal peptide) (PSI (0-1 scale)); higher = more stable (slower turnover)
Settings: genetic background: wild type; temperature: 30 C
Just the number, please, no unit after it.

The cases that follow already have their protein stability index on record.
VMGYCNWCVIRQ: 0.694
AVAYMAHLPITR: 0.69
LPPPRPTRSPTH: 0.617
GVRRSQSCPVRS: 0.707
ILLICLQFFNLF: 0.448
PPYPPGLPSLPP: 0.689

Challenge: Give the measured protein stability index of GAGRLGGDRVVG .
Response given: 0.698

Challenge: Field request: protein stability index | item: PPRPRVLPYPPL
Response given: 0.746

---

System: Saccharomyces cerevisiae
Test: protein stability index of tFT-peptide fusion in deletion strain of DAS1 (PSI (0-1 scale)); higher = more stable (slower turnover)
Collected protein stability index values appear next to each entry.
Answer with the value's number alone.

Known protein stability index results, listed for orientation:
PSLAASWWRVVG: 0.693
RLIQMLPVQFLN: 0.626
PSLAACFWRVVG: 0.675

Challenge: Consider the sequence VRGAVGGSRLVG and give its measured protein stability index.
Response given: 0.669

---

System: Saccharomyces cerevisiae
Assay: protein stability index of tFT-peptide fusion (C-terminal peptide) (PSI (0-1 scale)); higher = more stable (slower turnover)
Settings: genetic background: wild type; temperature: 30 C
Please note: true (1) applies when protein stability index is 0.7 or greater, and false (0) applies otherwise.

As a guide, the following entries are already answered.
SLWGFWRVVGRR: false (0)
SPPSPPSPPPLV: true (1)
PPPAFRLPLPPP: true (1)
RGGVLYVSIRCK: false (0)

// next entry
Challenge: I'd appreciate it if you could say whether ELDVRPMVFLVA has protein stability index at least equal to 0.7.
Response given: false (0)

---

Each item that follows carries a reported protein stability index.
System: Saccharomyces cerevisiae
Assay: protein stability index of tFT-peptide fusion (C-terminal peptide) (PSI (0-1 scale)); higher = more stable (slower turnover)
Details: genetic background: wild type; temperature: 30 C
Give the figure only, with no unit attached.

Recorded protein stability index, per entry:
IAFSINAFCWRG: 0.552
ACGDRGGLCSEG: 0.616
LLIHLKDFYCFV: 0.855
RLRHPPRLSTLC: 0.463
SPPSPFAFPLPP: 0.675

Challenge: Item INQEKKLKNNKK has what recorded protein stability index?
Response given: 0.706

Challenge: Consider the sequence shown here: VLLGFSDYLRVT What is its recorded protein stability index?
Response given: 0.698

---

Test system: Saccharomyces cerevisiae
Test: protein stability index of tFT-peptide fusion in deletion strain of DAS1 (PSI (0-1 scale)); higher = more stable (slower turnover)
Overview of reported protein stability index across a group of sequences:

PTSCGYKFRTNN: 0.677

Challenge: Which value of protein stability index has been reported for KFHKKGQKQKIN in the records?
Response given: 0.576

Challenge: Which value of protein stability index has been reported for RLIQPLPVQFLF in the records?
Response given: 0.779

Challenge: Data request, read-out protein stability index, for LKILRQKMMHQN
Response given: 0.62

---

System: Saccharomyces cerevisiae
Experiment: protein stability index of tFT-peptide fusion (C-terminal peptide) (PSI (0-1 scale)); higher = more stable (slower turnover)
Details: genetic background: wild type; temperature: 30 C
Rule: protein stability index under 0.7 gives -1, otherwise 1.

LLSAPFRSFFTL: -1

Challenge: Please tell me: is the sequence GDRAKTKQRESN at or over 0.7 in terms of protein stability index?
Response given: -1

Challenge: Is protein stability index at least 0.7? Consider PPPAPLSPLSPR
Response given: -1

Challenge: Exam item: decide whether the reported protein stability index for LLRYAPSALPLP is at least 0.7.
Response given: -1

Challenge: Please check the record LVLPTSRPRCFI and state if its protein stability index is at or above 0.7.
Response given: -1

Challenge: Form field: protein stability index at least 0.7? Entry: PTPLRILFALTP
Response given: -1

Challenge: Hi, just wondering whether GLLAIVLYEYTG shows protein stability index of 0.7 or higher.
Response given: -1

Challenge: Is protein stability index for GLSHPPNFLPSG at or above 0.7?
Response given: -1

Challenge: Could you tell me if the measured protein stability index of FWGCFVWFCVCG reaches 0.7 or more?
Response given: -1

Challenge: Could you please find out whether FPLDNIALQSFP has protein stability index that meets 0.7 or exceeds it?
Response given: 1

Challenge: Would you say SSPPPLPPSPPP shows protein stability index at minimum 0.7?
Response given: -1

Challenge: Item LMAGPRLCSPLR with protein stability index of 0.7 or above?
Response given: -1

Challenge: Check this sequence for protein stability index at or above 0.7: PPPLPPSIPLPL
Response given: 1

The measured values listed here are drawn from the supplement of paper PMC10724198.
